Measured On: EPHB3 (human) (UniProt P54753)
Sequence (P54753 whole entry, looked up): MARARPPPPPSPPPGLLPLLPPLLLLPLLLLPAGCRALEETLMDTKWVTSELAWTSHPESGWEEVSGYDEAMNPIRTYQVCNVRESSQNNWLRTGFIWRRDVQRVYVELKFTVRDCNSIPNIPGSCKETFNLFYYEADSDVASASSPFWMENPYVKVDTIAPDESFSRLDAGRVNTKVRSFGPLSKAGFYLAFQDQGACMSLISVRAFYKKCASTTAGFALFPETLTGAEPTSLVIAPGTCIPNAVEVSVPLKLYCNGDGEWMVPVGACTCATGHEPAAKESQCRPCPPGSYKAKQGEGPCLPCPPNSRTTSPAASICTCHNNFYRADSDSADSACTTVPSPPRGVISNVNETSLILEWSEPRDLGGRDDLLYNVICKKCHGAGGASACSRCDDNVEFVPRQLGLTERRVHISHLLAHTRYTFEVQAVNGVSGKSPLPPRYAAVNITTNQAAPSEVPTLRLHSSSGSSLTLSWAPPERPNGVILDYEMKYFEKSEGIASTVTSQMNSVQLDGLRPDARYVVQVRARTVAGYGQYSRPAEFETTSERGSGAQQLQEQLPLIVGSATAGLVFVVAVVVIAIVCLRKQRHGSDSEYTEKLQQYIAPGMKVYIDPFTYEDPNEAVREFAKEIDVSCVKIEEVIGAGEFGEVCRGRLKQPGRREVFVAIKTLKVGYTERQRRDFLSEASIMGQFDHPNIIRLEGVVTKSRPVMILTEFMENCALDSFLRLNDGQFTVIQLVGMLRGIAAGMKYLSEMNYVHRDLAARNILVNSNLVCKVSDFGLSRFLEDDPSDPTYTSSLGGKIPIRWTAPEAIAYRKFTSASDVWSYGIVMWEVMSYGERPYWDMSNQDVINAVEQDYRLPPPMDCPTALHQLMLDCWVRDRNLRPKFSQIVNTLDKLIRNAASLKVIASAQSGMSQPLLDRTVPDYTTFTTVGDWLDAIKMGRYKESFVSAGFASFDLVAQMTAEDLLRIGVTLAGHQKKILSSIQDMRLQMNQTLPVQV
Protocol: radiometric filter-binding kinase assay, Kinase HotSpot
Assay Setup: compound 0.5 µM; ATP 10 µM
Endpoint Name: residual activity (%)
// note: answer is a bare numeric in %

Previously resolved entries follow.
[
  {
    "Item Smiles": "Cn1cnc2cc3c(Nc4cccc(Br)c4)ncnc3cc21",
    "residual activity [%]": 93.8
  },
  {
    "Item Smiles": "COc1cc2ncc(-c3ccccc3)nc2cc1OC",
    "residual activity [%]": 88.6
  },
  {
    "Item Smiles": "O=C1Cc2c([nH]c3ccc(Br)cc23)-c2ccccc2N1",
    "residual activity [%]": 92.3
  }
]

Challenge: I have this compound here, "O=C(O)/C=C/c1cc(Br)c(Br)c(Br)c1Br" , and I need its recorded residual activity.
Response given: 89.8

Challenge: For the compound shown here, "CC(=O)O/N=C1\C(=C2\C(=O)Nc3cc(Br)ccc32)Nc2ccccc21" , give the reported residual activity.
Response given: 94.2

====

Measured On: MAPK13 (human)
Protocol: radiometric filter-binding kinase assay, Kinase HotSpot
Assay Setup: compound 0.5 µM; ATP 10 µM
// residual activity lookup, one value per entry

[
  {
    "Compound": "COc1ccc(CNC(=O)Nc2ncc([N+](=O)[O-])s2)cc1",
    "Measured On": "MAPK13 (human)",
    "residual activity": "91.1%"
  },
  {
    "Compound": "O=C1NC(=O)C(c2cn(CCCO)c3ncccc23)=C1c1cnccn1",
    "Measured On": "MAPK13 (human)",
    "residual activity": "96.5%"
  },
  {
    "Compound": "O=C1Cc2c([nH]c3ccc(Br)cc23)-c2ccccc2N1",
    "Measured On": "MAPK13 (human)",
    "residual activity": "103%"
  }
]

Challenge: Could you tell me which residual activity is on file for "O=C1NC(=O)/C(=C\c2ccc3nccnc3c2)S1" ?
Response given: 99.1%

====

Measured On: MAP4K2 (human) (UniProt Q12851)
Sequence (Q12851 whole entry, looked up): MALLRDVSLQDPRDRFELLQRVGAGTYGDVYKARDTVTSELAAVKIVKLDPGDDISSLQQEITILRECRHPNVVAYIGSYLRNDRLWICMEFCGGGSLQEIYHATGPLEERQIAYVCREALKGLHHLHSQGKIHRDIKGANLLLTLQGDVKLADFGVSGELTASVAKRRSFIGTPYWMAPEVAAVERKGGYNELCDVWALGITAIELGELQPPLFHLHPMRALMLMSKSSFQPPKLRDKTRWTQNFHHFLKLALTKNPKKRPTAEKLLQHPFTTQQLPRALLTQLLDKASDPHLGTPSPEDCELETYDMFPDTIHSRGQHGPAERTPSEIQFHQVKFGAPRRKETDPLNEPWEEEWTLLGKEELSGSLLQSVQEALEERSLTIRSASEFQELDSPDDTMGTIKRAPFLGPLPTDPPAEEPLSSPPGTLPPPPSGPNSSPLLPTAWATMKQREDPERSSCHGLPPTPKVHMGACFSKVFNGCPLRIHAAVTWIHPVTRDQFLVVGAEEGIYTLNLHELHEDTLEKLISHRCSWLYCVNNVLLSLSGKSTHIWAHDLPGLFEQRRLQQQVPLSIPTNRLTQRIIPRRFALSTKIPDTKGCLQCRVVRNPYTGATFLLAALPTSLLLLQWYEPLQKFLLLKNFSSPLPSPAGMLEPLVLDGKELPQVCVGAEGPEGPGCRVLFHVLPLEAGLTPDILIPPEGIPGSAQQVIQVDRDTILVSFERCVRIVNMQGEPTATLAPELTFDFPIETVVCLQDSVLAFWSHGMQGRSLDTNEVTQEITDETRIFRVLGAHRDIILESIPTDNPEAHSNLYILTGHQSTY
Protocol: radiometric filter-binding kinase assay, Kinase HotSpot
Assay Setup: compound 0.5 µM; ATP 10 µM
Endpoint Name: residual activity (%)
Hi! Could you send only the number? It should be in %, unit omitted.

Use the examples below as a reference point.
[
  {
    "Item Smiles": "Nc1nccc(-c2c(-c3ccc(F)cc3)ncn2C2CCNCC2)n1",
    "residual activity, %": 102
  },
  {
    "Item Smiles": "Cn1sc(=O)n(Cc2ccccc2)c1=O",
    "residual activity, %": 119
  },
  {
    "Item Smiles": "O=C1Cc2c([nH]c3ccc(Br)cc23)-c2ccccc2N1",
    "residual activity, %": 20.1
  },
  {
    "Item Smiles": "O=C(CCCc1ccc(-c2ccccc2F)cc1)Nc1ccc(O)cc1",
    "residual activity, %": 104
  },
  {
    "Item Smiles": "CC(C)c1nn(-c2c(Cl)cccc2Cl)c2nc(Cc3ccc(OCCO)cc3)nc(O)c12",
    "residual activity, %": 106
  },
  {
    "Item Smiles": "O=C(Nc1cccc(Nc2cc(Nc3cccc(C(F)(F)F)c3)ncn2)c1)C1CC1",
    "residual activity, %": 116
  }
]

Challenge: For "Cc1nc2cc3nc(-c4cccs4)cnc3cc2n1C" , what is its reported residual activity?
Response given: 110

Challenge: Dear colleague, I am looking for the recorded residual activity of the following compound: "COc1cc2ncnc(N3CCN(C(=O)Nc4ccc(Oc5ccccc5)cc4)CC3)c2cc1OC"
Response given: 94.7

Challenge: Consider the compound shown here: "CC(=O)O/N=C1\C(=C2\C(=O)Nc3cc(Br)ccc32)Nc2ccccc21" What is its recorded residual activity?
Response given: 44

Challenge: Tell me the measured residual activity of "Oc1ccc(Nc2nc(-c3ccc(Cl)cc3)cs2)cc1" , please.
Response given: 103

Challenge: Entry "CC(C)[C@H](CO)Nc1nc(Nc2cc(N)cc(Cl)c2)c2ncn(C(C)C)c2n1" : reported residual activity = ?
Response given: 90.7

====

Measured On: MKNK2 (human) (UniProt Q9HBH9)
Sequence (Q9HBH9 whole entry, looked up): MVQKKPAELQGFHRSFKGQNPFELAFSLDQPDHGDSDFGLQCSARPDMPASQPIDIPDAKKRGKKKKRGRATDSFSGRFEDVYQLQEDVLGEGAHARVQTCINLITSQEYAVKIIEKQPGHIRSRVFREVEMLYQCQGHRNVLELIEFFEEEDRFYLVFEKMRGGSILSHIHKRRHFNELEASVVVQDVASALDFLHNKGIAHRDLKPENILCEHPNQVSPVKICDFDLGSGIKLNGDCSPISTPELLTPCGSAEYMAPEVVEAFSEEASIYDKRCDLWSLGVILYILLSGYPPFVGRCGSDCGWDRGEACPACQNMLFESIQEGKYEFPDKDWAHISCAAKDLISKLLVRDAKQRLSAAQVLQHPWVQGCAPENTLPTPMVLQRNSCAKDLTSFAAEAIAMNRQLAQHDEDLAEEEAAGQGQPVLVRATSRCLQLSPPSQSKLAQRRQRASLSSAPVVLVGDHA
Protocol: radiometric filter-binding kinase assay, Kinase HotSpot
Assay Setup: compound 0.5 µM; ATP 10 µM
Quick list: residual activity per entry.
A number alone suffices; assume %.

[
  {
    "Item Smiles": "Nc1nnc2[nH]c3ccccc3nc1-2",
    "residual activity, %": 89.1
  },
  {
    "Item Smiles": "CC(C)c1nn(-c2c(Cl)cccc2Cl)c2nc(Cc3ccc(OCCO)cc3)nc(O)c12",
    "residual activity, %": 88.9
  },
  {
    "Item Smiles": "COc1ccc(CNC(=O)Nc2ncc([N+](=O)[O-])s2)cc1",
    "residual activity, %": 95.7
  }
]

Challenge: Returns the measured residual activity for the input compound. Input: "Oc1ccc(Nc2nc(-c3ccc(Cl)cc3)cs2)cc1"
Response given: 84.5

Challenge: Which value of residual activity has been reported for "Cn1nc2c3c(cccc31)C(=O)c1ccccc1-2" in the records?
Response given: 94.1

Challenge: Requested read-out: residual activity. Entry: "O=C1Nc2ccccc2/C1=C1\Nc2ccccc2\C1=N/O"
Response given: 82.1

====

Measured On: EPHA3 (human) (UniProt P29320)
Sequence (P29320 whole entry, looked up): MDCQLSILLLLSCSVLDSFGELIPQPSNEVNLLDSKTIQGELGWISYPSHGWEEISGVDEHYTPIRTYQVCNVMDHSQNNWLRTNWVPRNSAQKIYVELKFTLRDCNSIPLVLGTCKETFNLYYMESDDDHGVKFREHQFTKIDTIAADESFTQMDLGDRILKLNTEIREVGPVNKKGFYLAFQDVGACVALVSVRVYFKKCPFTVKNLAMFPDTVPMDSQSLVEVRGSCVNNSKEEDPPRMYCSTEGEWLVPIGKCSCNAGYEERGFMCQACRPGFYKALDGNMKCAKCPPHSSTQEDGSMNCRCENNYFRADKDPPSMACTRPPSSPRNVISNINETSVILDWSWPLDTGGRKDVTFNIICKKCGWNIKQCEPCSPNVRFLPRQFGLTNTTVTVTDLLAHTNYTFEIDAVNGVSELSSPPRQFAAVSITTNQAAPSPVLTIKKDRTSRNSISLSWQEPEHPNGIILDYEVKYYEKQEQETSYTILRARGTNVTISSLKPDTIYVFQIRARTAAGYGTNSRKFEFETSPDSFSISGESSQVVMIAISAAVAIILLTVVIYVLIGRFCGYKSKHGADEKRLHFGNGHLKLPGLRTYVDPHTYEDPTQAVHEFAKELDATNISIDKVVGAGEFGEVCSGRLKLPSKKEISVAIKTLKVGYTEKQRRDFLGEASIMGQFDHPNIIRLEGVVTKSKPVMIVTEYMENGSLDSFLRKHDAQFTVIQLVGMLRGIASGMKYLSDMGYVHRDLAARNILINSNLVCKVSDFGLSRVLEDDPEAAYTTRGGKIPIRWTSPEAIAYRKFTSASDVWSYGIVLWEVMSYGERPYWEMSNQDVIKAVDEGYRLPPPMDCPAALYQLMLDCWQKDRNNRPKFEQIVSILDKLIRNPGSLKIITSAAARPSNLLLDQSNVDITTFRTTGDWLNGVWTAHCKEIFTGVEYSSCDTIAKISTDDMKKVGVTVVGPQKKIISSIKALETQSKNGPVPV
Protocol: radiometric filter-binding kinase assay, Kinase HotSpot
Assay Setup: compound 0.5 µM; ATP 10 µM
Endpoint Name: residual activity (%)
The reply should contain only the number, in %.

Use these answered entries as a reference point.
[
  {
    "Item Smiles": "O=C1NC(=O)C(c2cn(CCCO)c3ncccc23)=C1c1cnccn1",
    "Measured On": "EPHA3 (human) (UniProt P29320)",
    "Units Label": "%",
    "residual activity": 102
  },
  {
    "Item Smiles": "COc1cc2ncc(-c3ccccc3)nc2cc1OC",
    "Measured On": "EPHA3 (human) (UniProt P29320)",
    "Units Label": "%",
    "residual activity": 86.8
  },
  {
    "Item Smiles": "O=C(CCCc1ccc(-c2ccccc2F)cc1)Nc1ccc(O)cc1",
    "Measured On": "EPHA3 (human) (UniProt P29320)",
    "Units Label": "%",
    "residual activity": 100
  }
]

Now, please, on to the next compound.
Challenge: I have this compound here, "CC(=O)O/N=C1\C(=C2\C(=O)Nc3cc(Br)ccc32)Nc2ccccc21" , and I need its recorded residual activity.
Response given: 88.2

====

Measured On: CHEK2 (human) (UniProt O96017)
Sequence (O96017 whole entry, looked up): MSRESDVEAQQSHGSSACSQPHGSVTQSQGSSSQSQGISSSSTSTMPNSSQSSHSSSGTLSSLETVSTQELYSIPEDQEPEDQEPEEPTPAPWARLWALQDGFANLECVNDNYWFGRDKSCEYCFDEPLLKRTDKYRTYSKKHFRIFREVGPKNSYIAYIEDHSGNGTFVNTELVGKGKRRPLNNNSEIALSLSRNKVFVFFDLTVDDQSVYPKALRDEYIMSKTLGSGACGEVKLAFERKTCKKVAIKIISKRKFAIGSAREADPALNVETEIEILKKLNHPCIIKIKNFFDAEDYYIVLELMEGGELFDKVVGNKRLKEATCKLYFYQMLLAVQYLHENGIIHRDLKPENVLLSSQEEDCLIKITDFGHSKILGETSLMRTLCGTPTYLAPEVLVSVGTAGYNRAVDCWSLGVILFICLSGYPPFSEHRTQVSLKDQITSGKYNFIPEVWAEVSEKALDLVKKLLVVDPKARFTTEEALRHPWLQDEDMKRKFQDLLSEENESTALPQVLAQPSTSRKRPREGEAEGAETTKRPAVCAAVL
Protocol: radiometric filter-binding kinase assay, Kinase HotSpot
Assay Setup: compound 0.5 µM; ATP 10 µM
Endpoint Name: residual activity (%)
API: value field is a number in %; no unit string.

[
  {
    "Item Smiles": "CC(=O)O/N=C1\\C(=C2\\C(=O)Nc3cc(Br)ccc32)Nc2ccccc21",
    "residual activity (%)": 75.8
  },
  {
    "Item Smiles": "O=C1NC(=O)C(c2c[nH]c3ccccc23)=C1c1c[nH]c2ccccc12",
    "residual activity (%)": 124
  },
  {
    "Item Smiles": "Nc1nccc(-c2c(-c3ccc(F)cc3)ncn2C2CCNCC2)n1",
    "residual activity (%)": 101
  }
]

Challenge: Tell me the measured residual activity of "Cn1cnc2cc3c(Nc4cccc(Br)c4)ncnc3cc21" , please.
Response given: 101

Challenge: # query: residual activity of entry "CN(C)C[C@H]1CCn2c(c(C3=C(c4cn(C)c5ccccc45)C(=O)NC3=O)c3ccccc32)C1"
Response given: 95

Challenge: Given the compound "O=C(CCCc1ccc(-c2ccccc2F)cc1)Nc1ccc(O)cc1" , what is its reported residual activity?
Response given: 101

====

residual activity by entry:
Measured On: UniProtKB Q14289
Sequence (Q14289 whole entry, looked up): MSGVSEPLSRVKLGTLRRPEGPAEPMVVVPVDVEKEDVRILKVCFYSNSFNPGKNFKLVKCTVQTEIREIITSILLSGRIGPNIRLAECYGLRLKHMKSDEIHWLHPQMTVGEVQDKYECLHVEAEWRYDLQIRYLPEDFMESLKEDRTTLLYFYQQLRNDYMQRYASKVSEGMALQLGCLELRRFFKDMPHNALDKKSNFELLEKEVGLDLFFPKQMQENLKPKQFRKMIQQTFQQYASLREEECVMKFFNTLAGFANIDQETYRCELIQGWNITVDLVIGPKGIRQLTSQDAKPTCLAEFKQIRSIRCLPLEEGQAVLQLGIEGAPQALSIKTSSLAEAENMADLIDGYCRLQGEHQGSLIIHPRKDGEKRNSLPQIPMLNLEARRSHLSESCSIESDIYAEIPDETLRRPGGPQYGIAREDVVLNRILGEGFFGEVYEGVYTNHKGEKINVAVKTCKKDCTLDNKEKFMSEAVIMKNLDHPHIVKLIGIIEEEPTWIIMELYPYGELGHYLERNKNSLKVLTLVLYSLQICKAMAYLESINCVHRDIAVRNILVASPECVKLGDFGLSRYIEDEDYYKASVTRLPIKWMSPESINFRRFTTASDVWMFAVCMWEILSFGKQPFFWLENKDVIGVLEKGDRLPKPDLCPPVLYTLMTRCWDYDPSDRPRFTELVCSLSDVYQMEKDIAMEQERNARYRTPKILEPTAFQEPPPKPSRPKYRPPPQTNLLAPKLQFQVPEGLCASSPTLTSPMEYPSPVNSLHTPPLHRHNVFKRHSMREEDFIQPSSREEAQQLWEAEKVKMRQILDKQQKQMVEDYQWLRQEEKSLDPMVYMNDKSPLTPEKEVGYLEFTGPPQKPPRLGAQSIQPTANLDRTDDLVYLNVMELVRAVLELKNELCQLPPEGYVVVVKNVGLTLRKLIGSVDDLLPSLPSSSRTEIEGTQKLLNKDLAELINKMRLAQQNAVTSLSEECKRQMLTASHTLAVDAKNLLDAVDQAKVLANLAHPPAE
Protocol: radiometric filter-binding kinase assay, Kinase HotSpot
Assay Setup: compound 0.5 µM; ATP 10 µM
Your answer is read as %, so omit the unit and give the number.

Challenge: Find the recorded residual activity belonging to "CCn1cnc2c(Nc3cccc(Cl)c3)nc(N[C@@H]3CCCC[C@@H]3N)nc21" and report it.
Response given: 85.7

Challenge: Param item = "CC(C)[C@H](CO)Nc1nc(Nc2cc(N)cc(Cl)c2)c2ncn(C(C)C)c2n1" ; retrieve measured residual activity.
Response given: 63.6

Challenge: What residual activity value was documented for this compound, "Cn1cnc2cc3c(Nc4cccc(Br)c4)ncnc3cc21" ?
Response given: 92.7

Challenge: Looking for the measured residual activity of "O=C1Cc2c([nH]c3ccc(Br)cc23)-c2ccccc2N1" , can you help?
Response given: 102

Challenge: Dear colleague, I am looking for the recorded residual activity of the following compound: "CCN(CC)CCCCN1c2ccccc2Oc2ccc(Cl)cc21"
Response given: 99.6

Challenge: Recorded residual activity for "CC(=O)O/N=C1\C(=C2\C(=O)Nc3cc(Br)ccc32)Nc2ccccc21" , please?
Response given: 85.9
